assay-details: yeast display, Sf9 membrane polyspecificity reagent, FACS + sequencing; frameworks hold sequencing errors
reported-property: polyreactivity (PSR sort gate)

Sample answers from the record:
QVQLVESGGGLVQAGGSLRLSCAASGRTFYTNAKGWYRQAPGKERELVAAISSDSSTNYADSVKGRLTISRDNAKNTVYLQMNSLKPEDTAVYYCNKVRQGWADYEYWGQGSQVTVSS = low polyreactivity
QVQLVESGGGLVQAGGSLRLSCAASGRIFSYNTMGWYRQAPGKERELVAAISWSGGSTSYADSVKGRFTISRDNAKNTVYLQMNSLKPEDTAVYYCATGSKRNPFYRGNYWGQGTQVTVSS = low polyreactivity
QVQLVESGGGLVQAGGSLRLSSAASGRTFYKYAMGWYRQAPGKERELVAAISWNGGSTYYADSVKGRFTISRDNAKNTVYLQMNSLKPEDTAVYYCNVVNQRSRTGDYWGQGTQVTVSS = high polyreactivity
QVQLVESGGGLVQAGGSLRLSCAASGYIFVRYAMGWYRQAPGKERELVAAINSSGGRTYYADSVKGRFTISRDNAKNTVYLQLNSLKPEDTAVYYCAAYGYYRSGYRALEGYWGQGTQVTVAS = high polyreactivity
QEQLQESGGGLVQAGGSLRMSCAASGTIFSEANKGWYRQAPGKERELVATIGQGSTTNYADSVKGRFTISRDNAKNTVYLQMNSLKPEETAVYYCAVVTVDPVGFVYWGQGTQVTVSS = low polyreactivity
QVQLVESGGGLVQAGGILRLSCAASGYILYGYAMGWYTQAPGKERELVAAISNDGSTYYADSVKGRFTISRDNAKNTVYLQMNSLKPEDTAVYYCNADAWRKVPHPGTGGRDYWGQGTQVTVSS = high polyreactivity

Ask: Field request: polyreactivity (PSR sort gate) | item: "QVQVVESGGGLVQAGGSLRISCAASGRISVVHAMGWYRQAPGKERELVATINSGGSTYADSVKGRFTNSRDNAKNNVFFQMISQIPEDTAFYYCSARTFRISRLDFWGQCTQVTVSS"
Reply: high polyreactivity

Ask: Input "QVQLVESGGGIVQAGGSLRLSCAASGSISFLYTMGWYRQAPGKERELVAAITGSTASTYYADSVKGRFTISRDNAKNTVYLQMNSLKPEDTAVYYCAAYWYAEGYWVSRDYWGQGTQVTVSS"
Reply: low polyreactivity

Ask: Input "QVQLVESGGGLVQAGGSLRLSCAASGSTFYTNAMGWYRQAPGTERELVAAINYSGGSTYYADSVKGRFTISRDNAKNTVYLQMNSQTPEDTAVYYCATDLHWLVTKYGYWGQGTQVTVSS"
Reply: low polyreactivity

Ask: Input "QDQLVESGGGLVQEGGSLRLSCAASGRTFKHYVMGWYRQAPGKERELVATICGGGGTYYADSVKGRFTISRDNAKNSVYLQMISLKPEDTAVYYCAARYPRGSRTWSFDSNKQRDYWGQGTQVTVSS"
Reply: low polyreactivity

* * *

assay-details: yeast display, Sf9 membrane polyspecificity reagent, FACS + sequencing; frameworks hold sequencing errors
reported-property: polyreactivity (PSR sort gate)

Sample answers from the record:
QVQLVESGGGLVQEGGSLRLSCAASGFTFDDYAMGWYRQAPGKERELVATITNSDSSTYYADSVKGRFTISRDNEKNTFYLQMNSLQPVDTAVYYCAADGRYAYGYNHWGHGTQVTVSS = low polyreactivity
QVQLVESGGGLVQAGGSLRLSCAASGRIFSRYAMGWYRQAPGKERELVAGITRSGTTTYYADSVKGRFTISRDNAKNTVYLQMNSLKPEDTAVYYCAAPPIRPNLYDYWGQGTQVTVSS = high polyreactivity
QVQLVESGGGLVQAGGSLRLSCAASGSTFSKYAMGWYRQAPGKERELVAAISRSGGNTYYADSVKGRFTISRDNAKNTVYLQMNSLKPEDTAVYYCATTLYSYSTGRYRLDYWGQGTQVTVSS = high polyreactivity
QVQLVESGGGLVQAGGSLRLSCAASGSTFGLNAMGWYRQAPGKERELVAAITWSGASTYYADSVKGRFTISRDNAKNTVYLQMNSLKPEDTAVYYCAKDIPTDYKDVNYWGQGTQVTVSS = low polyreactivity

// moving on: another record for polyreactivity (PSR sort gate)
Ask: Field request: polyreactivity (PSR sort gate) | item: "QVQLVESGGGLVQEGGSLRLSCAASGNIFRAYGMGWYRQAPGKERELVAAIDTTGGRTYYADSVKGRFTISRDNAKNTVYLQMNSLKPEDTAVYYCAVRAPAYPYYRGFDYWGQGTQVTVSS"
Reply: low polyreactivity
